- method-description: Cytotoxicity against human PC3 cells after 48 hrs by MTT assay
- Type: functional, cell-based
- protocol-conditions: PC-3, 48 h
metric-name: pIC50
pIC50 is a log-scale quantity: -log10 of the concentration expressed in molar.

The examples below pair each entry with its known result.
O=c1ccc2cc(OCc3cc(-c4ccccc4[N+](=O)[O-])no3)ccc2o1    5.09
N#Cc1ccccc1-c1cc(COc2ccc3oc(=O)ccc3c2)on1    4.87
COc1ccccc1-c1cc(COc2ccc3oc(=O)ccc3c2)on1    4.65
O=c1ccc2cc(OCc3cc(-c4ccccc4)no3)ccc2o1    4.27

Value of pIC50 reported for the compound "O=c1ccc2cc(OCc3cc(-c4ccccc4Cl)no3)ccc2o1" is 4.74

pIC50 reported for this compound "Cn1c(=O)n(-c2ccc(C(C)(C)C#N)cc2)c2c3cc(-c4cnc5ccccc5c4)ccc3ncc21" : 4.91

Value of measured pIC50 for the entry "O=c1ccc2cc(OCc3cn(-c4cccc([N+](=O)[O-])c4)nn3)ccc2o1" : 4.31
